testedSystem: PIK3CD (Human) (UniProt O00329)
Sequence (O00329 whole entry, looked up): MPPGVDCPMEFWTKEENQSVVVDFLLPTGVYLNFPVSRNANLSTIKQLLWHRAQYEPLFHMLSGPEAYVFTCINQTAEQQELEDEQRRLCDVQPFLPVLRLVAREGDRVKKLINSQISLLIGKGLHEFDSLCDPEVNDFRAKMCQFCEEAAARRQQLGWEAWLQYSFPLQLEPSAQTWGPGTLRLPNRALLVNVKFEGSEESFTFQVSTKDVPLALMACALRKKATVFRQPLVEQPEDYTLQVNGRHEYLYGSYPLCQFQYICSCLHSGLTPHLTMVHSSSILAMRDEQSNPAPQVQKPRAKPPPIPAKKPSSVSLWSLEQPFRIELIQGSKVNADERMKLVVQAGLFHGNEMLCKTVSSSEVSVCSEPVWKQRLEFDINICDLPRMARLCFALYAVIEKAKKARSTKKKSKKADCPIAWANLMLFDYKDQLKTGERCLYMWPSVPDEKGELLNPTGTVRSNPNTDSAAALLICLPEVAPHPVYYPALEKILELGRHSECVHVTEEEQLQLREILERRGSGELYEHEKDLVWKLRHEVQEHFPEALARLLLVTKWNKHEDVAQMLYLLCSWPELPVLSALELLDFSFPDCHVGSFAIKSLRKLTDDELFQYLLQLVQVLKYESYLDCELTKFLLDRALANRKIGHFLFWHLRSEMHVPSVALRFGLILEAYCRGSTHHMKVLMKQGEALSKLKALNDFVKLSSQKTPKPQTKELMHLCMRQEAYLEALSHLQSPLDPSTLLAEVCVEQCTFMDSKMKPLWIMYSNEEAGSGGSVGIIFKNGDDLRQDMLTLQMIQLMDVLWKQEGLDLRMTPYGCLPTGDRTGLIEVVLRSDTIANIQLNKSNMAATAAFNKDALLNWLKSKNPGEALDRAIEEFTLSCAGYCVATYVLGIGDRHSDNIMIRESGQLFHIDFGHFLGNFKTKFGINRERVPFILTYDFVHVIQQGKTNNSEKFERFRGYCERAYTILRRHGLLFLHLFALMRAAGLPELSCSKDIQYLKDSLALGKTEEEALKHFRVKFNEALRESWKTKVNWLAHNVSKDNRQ
measurementLabel: IC50 (µM)
The figure you give is taken to be in µM; do not add the unit.

IC50 for COc1ccc(-c2ccc3c(N4CCOC[C@@H]4C)nc(N4CCOC[C@@H]4C)nc3n2)cc1CO is 3.2

* * *

testedSystem: PIK3CB (Human)
protocol: Enzyme Assay
measurementLabel: IC50 (nM)
Lab book: enter the figure in nM, no units written.

Please fill in: IC50 reported for CN1CCN(Cc2cc3nc(-c4cccc(O)c4)nc(N4CCOCC4)c3s2)CC1 = 35

Attribution: the Kinase Knowledgebase extract (Sharma et al. 2016)
